test name: Rat PK assay
Format: in vivo, Sprague Dawley rats
experimental context: Sprague Dawley, plasma, 30 mg/kg, 30 mpk po
Structures can show the parent of a compound that is named as a salt.
readout label: AUC (ng·h/mL)
Report the figure in ng·h/mL without appending any unit label.

Tell me the measured AUC of CCOC(=O)[C@@H]1C[C@@H](NC(=O)C2CC2)CN1C(=O)c1nc(-c2ccc(OC)c3nc(C(F)(F)F)ccc23)oc1[C@H](C)N [xinafoate salt] , please.
350

The measurements presented in this section are drawn from patent US7919505B2.
